- Tested on: Escherichia coli NIHJ
- ASSAY SUMMARY: Antibacterial activity, minimum inhibition concentration (method of The Chemotherapy Association, Japan)
- Type: cell-based
- PARTICULARS: Escherichia coli, strain K: Escherichia coli NIHJ; read-out: minimum inhibition concentration
MEASUREMENT NAME: MIC (µg/mL)
Give bare numbers, in µg/mL.

# COMPOUND, MEASURED RESULT
data = [
    ("CC(=O)OCC1=C(C(=O)O)N2C(=O)C(NC(=O)C(=C(Cl)Cl)c3ccccc3)[C@H]2SC1 (stereo partly shown) [Compound 38]", 3.1),
    ("Nc1nc(C(=CCl)C(=O)NC2C(=O)N3C(C(=O)[O-])=C(C[n+]4ccccc4)CSC23)cs1 (stereo not shown) [Compound 24]", 1.56),
    ("Cn1nnnc1SCC1=C(C(=O)O)N2C(=O)C(NC(=O)C(=CCl)c3cccs3)C2SC1 (stereo not shown) [Compound 34]", 1.56),
]

Give its MIC value. Item: CC(=O)OCC1=C(C(=O)O)N2C(=O)C(NC(=O)C(=C(Cl)Cl)c3csc(NC(=O)OC(C)(C)C)n3)C2SC1 (stereo not shown) [5-(1)]
0.1

###

- Tested on: Escherichia coli NIHJ
- ASSAY SUMMARY: Antibacterial activity, minimum inhibition concentration (method of The Chemotherapy Association, Japan)
- Format: cell-based
- PARTICULARS: Escherichia coli, strain K: Escherichia coli NIHJ; read-out: minimum inhibition concentration
Where a name gives a salt, the structure may show the parent alone.
For each entry below, report its MIC value.

Below: 2 molecules and their reported MIC.
# MOLECULE, MIC
measured = [
    ("CSc1nnc(SCC2=C(C(=O)O)N3C(=O)C(NC(=O)C(=C(Cl)Cl)c4csc(N)n4)C3SC2)s1 (stereo not drawn) [9-(2), sodium salt]", "< 0.025 µg/mL"),
    ("Cn1nnnc1SCC1=C(C(=O)O)N2C(=O)C(NC(=O)C(=C(Cl)Cl)c3csc(N)n3)C2SC1 (stereo not drawn)", "< 0.025 µg/mL"),
]

Kindly consider the entry below.
Could you share what MIC was measured for Cn1nnnc1SCC1=C(C(=O)O)N2C(=O)C(NC(=O)C(=CCl)c3csc(N)n3)C2SC1 (stereo not drawn) [11-(3), sodium salt] , tested on Escherichia coli NIHJ?
< 0.00625 µg/mL

###

- Test system: Serratia marcescens IFO-3736
- ASSAY SUMMARY: Antibacterial activity, minimum inhibition concentration (method of The Chemotherapy Association, Japan)
- Format: cell-based
- PARTICULARS: Serratia marcescens, IFO3736, strain F: Serratia marcescens IFO-3736; read-out: minimum inhibition concentration
Counter-ions that a name gives are not always drawn.
MEASUREMENT NAME: MIC (µg/mL)
Answers are plain numbers, in µg/mL.

# COMPOUND, UNIT LABEL, MIC
data = [
    ("Cn1nnnc1SCC1=C(C(=O)O)N2C(=O)C(NC(=O)C(=C(Cl)Cl)c3ccco3)C2SC1 (centres unmarked)", "µg/mL", 50),
]

Value sought for every listed compound: MIC.
1. Cn1nnnc1SCC1=C(C(=O)O)N2C(=O)C(NC(=O)C(=CCl)c3csc(N)n3)C2SC1 (centres unmarked) [11-(3), sodium salt]
2. Cn1nnnc1SCC1=C(C(=O)O)N2C(=O)C(NC(=O)C(=C(Cl)Cl)c3csc(N)n3)C2SC1 (centres unmarked)
3. CC(=O)OCC1=C(C(=O)O)N2C(=O)C(NC(=O)C(=C(Cl)Cl)c3csc(N)n3)[C@H]2SC1 (some centres unmarked)

1. 0.78
2. 25
3. 50

List the reported MIC of each compound below.
1. Cn1nnnc1SCC1=C(C(=O)O)N2C(=O)C(NC(=O)C(=C(Cl)Cl)c3ccsc3)C2SC1 (centres unmarked)
2. CN(C)CCn1nnnc1SCC1=C(C(=O)O)N2C(=O)C(NC(=O)C(=C(Cl)Cl)c3csc(N)n3)C2SC1 (centres unmarked)
3. Cn1nnnc1SCC1=C(C(=O)O)N2C(=O)C(NC(=O)C(=CCl)c3cccs3)C2SC1 (centres unmarked)
4. CC(=O)OCC1=C(C(=O)O)N2C(=O)C(NC(=O)C(=C(Cl)Cl)c3csc(NC(=O)OC(C)(C)C)n3)C2SC1 (centres unmarked)

100
50
100
12.5
